tested on: Enterococcus faecium; test: Antibacterial activity against glycopeptide resistant Enterococcus faecium 569 strain; assay type: functional

{"columns": ["record.smiles", "MIC, mg/L"],
 "data": [
  ["CN[C@H](CC(C)C)C(=O)N[C@H]1C(=O)N[C@@H](CC(N)=O)C(=O)N[C@H]2C(=O)N[C@H]3C(=O)N[C@H](C(=O)N[C@H](C(=O)NCc4ccc(-c5ccc(Cl)cc5)cc4)c4cc(O)cc(O)c4-c4cc3ccc4O)[C@H](O[C@H]3C[C@](C)(N)[C@@H](O)[C@H](C)O3)c3ccc(cc3)Oc3cc2cc(c3O[C@@H]2O[C@H](CO)[C@@H](O)[C@H](O)[C@H]2O[C@H]2C[C@](C)(N)[C@@H](O)[C@H](C)O2)Oc2ccc(cc2Cl)[C@H]1O", 4],
  ["CCCCCCCCCCNC(=O)[C@H]1NC(=O)[C@H]2NC(=O)[C@H](NC(=O)[C@H](N)c3cc(Oc4ccc(C[C@@H](N)CO)cc4Cl)c(O)c(c3)Oc3ccc(cc3Cl)[C@H]2O[C@@H]2O[C@@H](CO)[C@@H](O)[C@H](O)[C@@H]2NC(C)=O)c2ccc(O)c(c2)-c2c(O[C@H]3O[C@H](CO)[C@@H](O)[C@@H](O)[C@@H]3O)cc(O)cc21", 16]
]}
